Experimental target: HLA B*5301 (Homo sapiens, UniProt P01889, A329T/A93T/A95T/C349S/D201E/D98Y/E176V/E187L/E204Q/E69T/G107R/I218V/K202T/L105A/L119I/N104I/Q94N/R106L/R155S/R180L/S101N/S121R/S35A/S48A/T118I/V127L/V306I/V36M/Y140S/Y91F)
Format: binding
Below is a list of entries, each paired with its recorded Normalized average relative binding affinity(ARB) value.
In your answer, state the number alone without any accompanying words.

# Biopolymer sequence, Obs value
data = [
    ("XXXXXIXXX [3064.0108]", 0.41),
    ("XXXXEXXXX [3064.0084]", 0.15),
    ("XXXXXFXXX [3064.0105]", 0.86),
    ("XXXXXXNXX [3064.0132]", 0.29),
    ("XXXXXXWXX [3064.0139]", 0.31),
]

Which Normalized average relative binding affinity(ARB) value is on record for XXXXKXXXX [3064.0089] ? 0.042

Which Normalized average relative binding affinity(ARB) value is on record for XXXXTXXXX [3064.0097] ? 0.11

Which Normalized average relative binding affinity(ARB) value is on record for XXXXXXXNX [3064.0152] ? 0.21

Which Normalized average relative binding affinity(ARB) value is on record for XXXXXXPXX [3064.0133] ? 0.50

Which Normalized average relative binding affinity(ARB) value is on record for XXXGXXXXX [3064.0066] ? 0.18

Which Normalized average relative binding affinity(ARB) value is on record for XXXXXXXIX [3064.0148] ? 1.0

Which Normalized average relative binding affinity(ARB) value is on record for XXXXXXTXX [3064.0137] ? 0.081

Which Normalized average relative binding affinity(ARB) value is on record for XXXXCXXXX [3064.0082] ? 0.13

Which Normalized average relative binding affinity(ARB) value is on record for XXXXXXVXX [3064.0138] ? 0.32

Which Normalized average relative binding affinity(ARB) value is on record for XXXXQXXXX [3064.0094] ? 0.12

###

Experimental target: HLA B*1503 (Homo sapiens, UniProt P01889, A329T/A93T/A95T/C349S/D201E/D98Y/E187L/E204Q/K202T/N87E/Q94N/R155S/R180L/S121R/S35A/V306I/V36M/Y140S/Y91S)
Procedure summary: biochemical
Format: binding
Where a SMILES comes first, the peptide text is derived from it.
Below is a list of entries, each paired with its recorded log10(IC50) value.
A value of 2 here means IC50 of 100 in nM, since values are log10.

# Compound, log10(IC50)
measured = [
    ("CC(C)C[C@H](N)C(=O)N[C@@H](CCCCN)C(=O)N[C@H](C(=O)N[C@H](C(=O)N[C@@H](Cc1ccccc1)C(=O)N[C@H](C(=O)N[C@@H](Cc1c[nH]cn1)C(=O)N1CCC[C@H]1C(=O)N[C@@H](Cc1ccccc1)C(=O)O)C(C)C)[C@@H](C)O)[C@@H](C)O [3102.1294] (H-LKTTFVHPF-OH)", 0.11),
]

Which log10(IC50) value is on record for CC[C@H](C)[C@H](NC(=O)[C@H](CCCCN)NC(=O)[C@@H](N)CCSC)C(=O)N[C@H](C(=O)N[C@@H](CCCNC(=N)N)C(=O)N1CCC[C@H]1C(=O)N[C@@H](CCCNC(=N)N)C(=O)N[C@@H](Cc1c[nH]cn1)C(=O)N[C@@H](Cc1ccccc1)C(=O)O)[C@@H](C)O [3102.1200] (H-MKITRPRHF-OH) ? 0.00

Which log10(IC50) value is on record for CC(C)C[C@H](N)C(=O)N[C@@H](CO)C(=O)N[C@@H](Cc1ccc(O)cc1)C(=O)N[C@@H](Cc1ccc(O)cc1)C(=O)N[C@H](C(=O)N[C@H](C(=O)N[C@@H](Cc1ccc(O)cc1)C(=O)N[C@H](C(=O)N[C@@H](Cc1ccccc1)C(=O)O)C(C)C)C(C)C)C(C)C [3102.1098] (H-LSYYVVYVF-OH) ? 1.28

Which log10(IC50) value is on record for CC[C@H](C)[C@H](NC(=O)[C@H](CC(N)=O)NC(=O)[C@H](Cc1c[nH]cn1)NC(=O)[C@H](CCC(N)=O)NC(=O)[C@@H](N)C(C)C)C(=O)N[C@@H](CCCCN)C(=O)N[C@@H](Cc1c[nH]cn1)C(=O)N[C@@H](CO)C(=O)N[C@@H](Cc1ccccc1)C(=O)O [3102.1075] (H-VQHNIKHSF-OH) ? -0.70

Which log10(IC50) value is on record for CC(C)C[C@H](NC(=O)[C@@H](N)CCCCN)C(=O)N[C@H](C(=O)N[C@@H](CO)C(=O)N[C@H](C(=O)N[C@@H](CCC(=O)O)C(=O)N[C@H](C(=O)N[C@@H](CO)C(=O)N[C@@H](Cc1ccccc1)C(=O)O)[C@@H](C)O)[C@@H](C)O)[C@@H](C)O [3102.1165] (H-KLTSTETSF-OH) ? 1.40

Which log10(IC50) value is on record for CC(C)[C@H](NC(=O)[C@H](CCC(N)=O)NC(=O)[C@H](CO)NC(=O)[C@@H](NC(=O)[C@H](CO)NC(=O)[C@@H](NC(=O)[C@H](CCC(N)=O)NC(=O)[C@@H](N)Cc1ccc(O)cc1)[C@@H](C)O)C(C)C)C(=O)N[C@@H](C)C(=O)O [3102.1307] (H-YQTSVSQVA-OH) ? 0.18

Which log10(IC50) value is on record for CC[C@H](C)[C@H](N)C(=O)N[C@@H](CCSC)C(=O)N[C@@H](C)C(=O)N[C@@H](CC(C)C)C(=O)N[C@H](C(=O)N[C@H](C(=O)N[C@@H](CO)C(=O)N[C@H](C(=O)N[C@@H](Cc1ccccc1)C(=O)O)[C@@H](C)CC)C(C)C)[C@@H](C)CC [3102.1093] (H-IMALIVSIF-OH) ? 0.65
